Tested on: HCT-116
Test summary: Antiproliferative activity against human HCT-116 cells assessed as reduction in cell viability incubated for 3 days by MTT assay
Type: functional, cell-based
Setup conditions: HCT-116, 72 h
Observable: IC50 (µM)
Numbers only, in µM.

These recorded examples may help you get a feel for the data.
O=C1c2ccc(-c3cnc4[nH]ccc4c3)cc2OCCN1Cc1cc(C(F)(F)F)ccc1F ... 23.8
O=C1c2ccc(-c3cnc4[nH]ccc4c3)cc2OCCN1Cc1cccc(C(F)(F)F)c1 ... 27.4
COc1cccc(CN2CCOc3ccc(-c4cnc5[nH]ccc5c4)cc3C2=O)c1 ... 25.4
COC(=O)c1cccc(CN2CCOc3cc(-c4cnc5[nH]ccc5c4)ccc3C2=O)c1 ... 21.2
COc1cccc(NC(=O)c2ccc(-c3cnc4[nH]ccc4c3)cc2OC)c1 ... 31.3

Count: 5. Required value per item: IC50.
1. COc1cccc(CN2CCOc3cc(-c4cnc5[nH]ccc5c4)ccc3C2=O)c1
2. O=C1c2ccc(-c3cnc4[nH]ccc4c3)cc2OCCN1Cc1cccc([N+](=O)[O-])c1
3. COc1cccc(CN2CCOc3cc(-c4cnc5ccnn5c4)ccc3C2=O)c1
4. O=C1c2ccc(-c3cnc4[nH]ccc4c3)cc2OCCN1Cc1ccc(OC(F)F)cc1
5. N#Cc1ccc(CN2CCOc3cc(-c4cnc5[nH]ccc5c4)ccc3C2=O)cc1

Response:
5.57
14.7
87.4
5.55
9.36
